- target-or-system: Tumor necrosis factor receptor superfamily member 10B (Homo sapiens) (UniProt O14763)
- Sequence (O14763 whole entry, looked up): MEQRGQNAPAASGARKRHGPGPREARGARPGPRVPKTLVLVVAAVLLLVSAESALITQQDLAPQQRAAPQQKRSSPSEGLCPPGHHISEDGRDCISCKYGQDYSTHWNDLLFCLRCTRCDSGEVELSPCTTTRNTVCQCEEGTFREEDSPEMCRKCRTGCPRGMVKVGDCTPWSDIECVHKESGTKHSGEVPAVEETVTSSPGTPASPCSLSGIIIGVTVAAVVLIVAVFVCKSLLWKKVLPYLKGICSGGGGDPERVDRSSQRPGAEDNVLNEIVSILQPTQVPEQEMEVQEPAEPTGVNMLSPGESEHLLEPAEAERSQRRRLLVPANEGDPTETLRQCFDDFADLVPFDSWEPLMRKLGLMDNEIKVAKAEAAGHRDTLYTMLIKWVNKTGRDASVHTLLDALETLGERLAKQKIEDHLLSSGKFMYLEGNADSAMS
- experiment: compound enhancement of TRAIL-induced cell killing – NB7 cells plus caspase-8, luminescence, panel, dose response (AID 652002)
- measurement-conditions: NB7 neuroblastoma +caspase-8, TRAIL sensitization, luminescence viability; NB7+Caspase-8; with TRAIL, mean of runs
The source made the active and inactive calls. No rule for the calls is given here.
measure-name: EC50

Worked cases, answers included:
{"columns": ["compound", "EC50"],
 "data": [
  ["Cc1cc(NC(=O)c2cncc(Br)c2)ccc1NC(=O)c1cc2ccccc2o1", "inactive"],
  ["CSc1nc(N)n2nc(-c3ccc(Cl)cc3)cc2n1", "> 12.5 µM (inactive)"],
  ["COc1cccc(NC(=O)Nc2nccc(C)n2)c1", "inactive"],
  ["Cc1cc(-c2ccccc2)nc(Nc2nc3c(C)cccc3c(=O)[nH]2)n1", "> 12.5 µM (inactive)"],
  ["Cn1c(=O)c2c(SCC(=O)Nc3ccccc3F)nc(C3CC3)nc2n(C)c1=O", "> 12.5 µM (inactive)"]
]}

Let us examine a further case.
// lookup EC50 for CCCC1(CCC)C(=O)NC(=NCc2ccccc2)NC1=O
> 12.5 µM (inactive)

###

- target-or-system: NB7+Caspase-8
- experiment: compound enhancement of TRAIL-induced cell killing – NB7 cells plus caspase-8, luminescence, panel, dose response (AID 652002)
- measurement-conditions: NB7 neuroblastoma +caspase-8, TRAIL sensitization, luminescence viability, with TRAIL, run 1, single replicate panel EC50
pEC50: −log10 of the molar value.
This listing pairs compounds with measured pEC50.

{"columns": ["smiles-structure", "target-or-system", "pEC50"],
 "data": [
  ["O=c1cc(-c2ccccc2)nc2cc(-c3ccc(F)cc3)[nH]n12", "NB7+Caspase-8", "< 4.90"],
  ["Cc1ccc(S(=O)(=O)Nc2ccccc2C(=O)Nc2nc(-c3ccc(F)cc3)cs2)cc1", "NB7+Caspase-8", "< 4.90"],
  ["c1ccc(Nc2nnc(-c3cccnc3)s2)cc1", "NB7+Caspase-8", "< 4.90"],
  ["O=C(N/N=C/c1cccc(OC(=O)c2ccco2)c1)c1ccc(F)cc1", "NB7+Caspase-8", 5.32],
  ["O=C(Nc1ccc2c(c1)OCCO2)NC1CCCCC1", "NB7+Caspase-8", "< 4.90"]
]}

Let us examine a further case.
// lookup pEC50 for CCOC(=O)c1sc(NC(=O)c2cccc(S(=O)(=O)N3CCc4ccccc43)c2)c(C#N)c1C
< 4.90

###

- target-or-system: NB7+Caspase-8
- experiment: compound enhancement of TRAIL-induced cell killing – NB7 cells plus caspase-8, luminescence, panel, dose response (AID 652002)
- measurement-conditions: NB7 neuroblastoma +caspase-8, TRAIL sensitization, luminescence viability, with TRAIL, run 1, single replicate panel EC50
measure-name: EC50

Worked cases, answers included:
{"columns": ["molecule", "target-or-system", "EC50"],
 "data": [
  ["CCCCC1CCC(C(=O)N(CCC(C)C)c2c(N)n(CCCC)c(=O)[nH]c2=O)CC1 (stereo unspecified)", "NB7+Caspase-8", "> 12.5 µM"],
  ["Cc1ccn2cc(C(=O)Nc3ccc4c(c3)OCCO4)nc2c1", "NB7+Caspase-8", "> 12.5 µM"],
  ["COc1ccc(OCC(=O)N/N=C/C=C/c2ccccc2)cc1", "NB7+Caspase-8", "> 12.5 µM"],
  ["CC(C)C[C@H](NC(=O)c1nc[nH]c1C(=O)N[C@@H](CCCCNC(=O)OC(C)(C)C)C(=O)OC(C)(C)C)C(=O)OCc1ccccc1", "NB7+Caspase-8", "> 12.5 µM"],
  ["O=C(Nc1ccc2c(c1)OCO2)c1ccc2c(c1)OCO2", "NB7+Caspase-8", "> 12.5 µM"],
  ["CCOC(=O)[C@]12Cc3cc4ccccc4cc3[C@H]1N(Cc1ccccc1)C(=O)c1cc(OC)ccc12", "NB7+Caspase-8", "> 12.5 µM"],
  ["COc1ccc(-c2cc(C(=O)N/N=C/c3cccnc3)c3ccccc3n2)cc1", "NB7+Caspase-8", "> 12.5 µM"],
  ["Cc1ccc2c(c1)C(=NC1CCCCC1)c1cc3ccccc3nc1-2", "NB7+Caspase-8", "> 12.5 µM"],
  ["C#CC(=O)CC1(CN(Cc2ccccc2)C(=O)OC(C)(C)C)CCCCC1", "NB7+Caspase-8", "3.12 µM"],
  ["CCOc1ccc(NC(=O)c2ccco2)cc1", "NB7+Caspase-8", "> 12.5 µM"]
]}

GET /values?readout=EC50&system=NB7+Caspase-8&item= CC(C)(C)OC(=O)[C@H](Cc1ccccc1)NC(=O)c1[nH]cnc1C(=O)Nc1ccccc1F
> 12.5 µM

GET /values?readout=EC50&system=NB7+Caspase-8&item= CC(C)CCn1c(=O)c(C(=O)Nc2ccccc2S(N)(=O)=O)c(O)c2ccccc21
> 12.5 µM

GET /values?readout=EC50&system=NB7+Caspase-8&item= CCCCCc1cc(=O)oc2c(C(CCN(CC)CC)c3cc(OC)c(OC)c(OC)c3)c(OC)cc(OC)c12 (stereo unspecified)
> 12.5 µM

GET /values?readout=EC50&system=NB7+Caspase-8&item= CC1(Cc2ccc(OC(F)(F)F)cc2)C(=O)Nc2ccc(S(=O)(=O)NC3CCCCC3)cc21 (stereo unspecified)
> 12.5 µM

GET /values?readout=EC50&system=NB7+Caspase-8&item= CCOc1ccc(-c2nnc(-c3ccccc3)o2)cc1
> 12.5 µM

GET /values?readout=EC50&system=NB7+Caspase-8&item= Cc1cccc(CC(=O)Nc2cc(C)c3c(=O)oc4ccccc4c3n2)c1
> 12.5 µM

GET /values?readout=EC50&system=NB7+Caspase-8&item= CCOC(=O)c1sc(NC(=O)Nc2ccc(F)cc2)nc1C
> 12.5 µM

GET /values?readout=EC50&system=NB7+Caspase-8&item= O=C(Nc1ccc(C(=O)O)cc1)/C(=C\C=C\c1ccccc1)NC(=O)c1ccccc1Cl
> 12.5 µM
